Listing: GI50 of selected molecules
# System: U-251
# ASSAY TEXT: NCI tumour cell line growth inhibition, 48 h
The source made the active and inactive calls. Cut-off read from the data, not from the text of the source: active = GI50 up to about 1.1 µM and inactive = higher.

MOLECULE: CCOC(=O)CSC(=O)NCCCl
GI50: > 100 µM (inactive)

MOLECULE: CN(c1ccc(Cl)cc1)S(=O)(=O)c1ccc([N+](=O)[O-])cc1
GI50: > 100 µM (inactive)

MOLECULE: CCC1(C)C=Cc2c(cc(OC)c3c(=O)c4ccccc4n(C)c23)O1 (stereo unspecified)
GI50: > 10 µM (inactive)

MOLECULE: COC(=O)C1=Cc2c(OC)cc(OC)c(OC)c2[C@H](c2cc(OC)c(OC)cc2OC)C1C(=O)OC (stereo partly specified)
GI50: > 100 µM (inactive)

MOLECULE: CC(=O)OCCOCn1cnc2c(Cl)nc(Cl)nc21
GI50: 15 µM (inactive)

MOLECULE: CC1(C)NC(C)(C)/C(=N\O)C(=NO)/C1=N/O
GI50: > 100 µM (inactive)

MOLECULE: CC(=O)C(C(C)=O)[C@H]1OC(C)(C)O[C@H]1[C@H]1COC(C)(C)O1
GI50: 24.9 µM (inactive)

MOLECULE: O=c1c2ccccc2ncn1COCc1ccccc1
GI50: > 100 µM (inactive)

MOLECULE: CCCCCCCCCCCCCCCCOCC(Cl)COP(=O)(O)OP(=O)(O)OCC1OC(n2cnc3c(N)ncnc32)C(O)C1O (stereo unspecified)
GI50: > 100 µM (inactive)

MOLECULE: O=C(CC1C(=O)Nc2ccccc2[S+]1[O-])Nc1ccccc1 (stereo unspecified)
GI50: > 100 µM (inactive)

MOLECULE: CC(=O)/C(=C/NC(=S)Nc1ccc(Cl)c(Cl)c1)C(=O)Nc1ccccc1C
GI50: 33 µM (inactive)

###

# System: SW-620
# ASSAY TEXT: NCI tumour cell line growth inhibition, 48 h
Activity calls are given as the source filed them. Rule as the data show it: active = GI50 up to about 1.1 µM and inactive = higher.
Possible outcomes: 1 (active), 0 (inactive)

COMPOUND: C=C(C)C1CCC(C(=O)O)CC1 (stereo unspecified)
GROUP: 0
--
COMPOUND: Cc1ccc2c(O)cc(-c3sccc3C)nc2n1
GROUP: 1
--
COMPOUND: COc1ccc(C(SCCO)(c2ccccc2)c2ccc(OC)cc2)cc1
GROUP: 0
--
COMPOUND: COc1ccc2c3c1O[C@H]1[C@@H](O)CC[C@@]4(O)[C@@H](C2)N(C)CC[C@]314
GROUP: 0
--
COMPOUND: COc1ccc(N2C(=O)C(Cl)C2c2cc3cc(Br)ccc3nc2Cl)cc1 (stereo unspecified)
GROUP: 0
--
COMPOUND: COc1ccc(N(c2ccc(C#N)cc2)c2ccc(C#N)cc2)cc1
GROUP: 0

###

# System: A498
# ASSAY TEXT: NCI tumour cell line growth inhibition, 48 h
Activity calls are given as the source filed them. Rule as the data show it: active = GI50 up to about 1.1 µM and inactive = higher.
Listing: GI50 of selected compounds

COMPOUND: CN(C)CC1(C)CC/C(=C\c2ccccc2)C1=O (stereo not drawn)
SYSTEM NAME: A498
GI50: > 100 µM (inactive)
--
COMPOUND: CCCNC(=O)NNC(=O)c1c[nH]c2nc(C)ccc2c1=O
SYSTEM NAME: A498
GI50: > 100 µM (inactive)
--
COMPOUND: O=C(CC1Sc2ccccc2NC1=O)Nc1ccc(Cl)cc1 (stereo not drawn)
SYSTEM NAME: A498
GI50: > 100 µM (inactive)
--
COMPOUND: O=S(=O)(O)c1ccc2cc(/N=N\c3cc(S(=O)(=O)O)c4cccnc4c3O)ccc2c1
SYSTEM NAME: A498
GI50: > 100 µM (inactive)
--
COMPOUND: C[n+]1c2ccccc2c(NCC(=O)O)c2ccccc21
SYSTEM NAME: A498
GI50: > 100 µM (inactive)
--
COMPOUND: C=CCN1C(=O)CC1N(CC=C)S(=O)(=O)c1ccc(C)cc1 (stereo not drawn)
SYSTEM NAME: A498
GI50: > 100 µM (inactive)
--
COMPOUND: CC1=CC2(C)C=C[C@@H]1C(=O)[C@@]1(C)CC[C@@](O)(C(C)C)[C@H]1CC2
SYSTEM NAME: A498
GI50: 28.6 µM (inactive)
--
COMPOUND: O=C(CCc1cccc(O)c1)NCCCNC(=O)CCc1cccc(O)c1
SYSTEM NAME: A498
GI50: > 100 µM (inactive)
--
COMPOUND: C/C(=N\Nc1nc2ccccc2s1)c1cc2ccccc2cn1
SYSTEM NAME: A498
GI50: 10.9 µM (inactive)
--
COMPOUND: CCCCC(=O)/C=c1/cc(C)[nH]c2cccc3cnn1c32
SYSTEM NAME: A498
GI50: > 100 µM (inactive)
--
COMPOUND: CCOC(=O)CSC(=O)NCCCl
SYSTEM NAME: A498
GI50: > 100 µM (inactive)
--
COMPOUND: Cc1ccccc1NC(=O)c1nc(S)nc(N)c1-c1ccccc1C
SYSTEM NAME: A498
GI50: > 100 µM (inactive)
--
COMPOUND: COc1ccc(C(=O)C(C(=O)C(=O)NC2C3CC4CC(C3)CC2C4)c2ccc(OC)cc2)cc1 (stereo not drawn)
SYSTEM NAME: A498
GI50: > 100 µM (inactive)
--
COMPOUND: CC1CNC(c2cccc(-c3nc(-c4cccc(C5=NC(C)CN5)c4)nc(N(C)C)n3)c2)=N1 (stereo not drawn)
SYSTEM NAME: A498
GI50: 2.05 µM (inactive)
--
COMPOUND: COc1ccc(CCc2ccc3c(c2)OCO3)cc1
SYSTEM NAME: A498
GI50: > 100 µM (inactive)
--
COMPOUND: Cc1nc2ccc(F)cc2c2c1CCO2
SYSTEM NAME: A498
GI50: > 100 µM (inactive)
--
COMPOUND: CS(=O)(=O)OCCCNCCCOS(C)(=O)=O
SYSTEM NAME: A498
GI50: 1330 µM (inactive)
--
COMPOUND: OC1(c2ccccc2)CCCCCCCCC(O)(c2ccccc2)CCCCCCCC1 (stereo not drawn)
SYSTEM NAME: A498
GI50: > 100 µM (inactive)
--
COMPOUND: C/C(Cl)=N\OC(=O)Nc1ccc(C)cc1
SYSTEM NAME: A498
GI50: 18.8 µM (inactive)
--
COMPOUND: CC(C)(C)OC(=O)CC(NC(=O)OC(C)(C)C)C(=O)NC(C(=O)O)C(O)c1ccccc1 (stereo not drawn)
SYSTEM NAME: A498
GI50: > 100 µM (inactive)
--
COMPOUND: COc1cc2nc(-c3cccs3)oc(=O)c2cc1OC
SYSTEM NAME: A498
GI50: > 100 µM (inactive)
--
COMPOUND: Nc1c2c(nc3cc(F)c(F)cc13)CCC2
SYSTEM NAME: A498
GI50: 24.7 µM (inactive)
--
COMPOUND: O=C1/C(=C\c2cccc(Oc3ccccc3)c2)SC(c2ccccc2)N1c1cc(Cl)ccc1Cl (stereo not drawn)
SYSTEM NAME: A498
GI50: > 100 µM (inactive)

###

# Test system: ACHN
# ASSAY TEXT: NCI tumour cell line growth inhibition, 48 h
Counter-ions that a name gives are not always drawn. The source made the active and inactive calls. No stated cut-off is given here; in the data, active = GI50 up to about 1.1 µM and inactive = higher.
Possible outcomes: 1.0 = active, 0.0 = inactive

COMPOUND: OC1(C(O)(c2ccc(-c3ccccc3)cc2)c2ccc(-c3ccccc3)cc2)CCCCC1
SYSTEM NAME: ACHN
GROUP: 0.0
//
COMPOUND: COC(=O)[C@]1(C)CCC[C@@]2(C)C1CCC1=CC3(C(C)C)CCC12OO3 (stereo not given in full)
SYSTEM NAME: ACHN
GROUP: 0.0
//
COMPOUND: CCOC(=O)CNC(=O)C(CSCc1ccc(Br)cc1)NC(=O)CCC(N)C(=O)OCC (stereo not given)
SYSTEM NAME: ACHN
GROUP: 0.0
//
COMPOUND: CSc1ccc2c(cc1=O)[C@@H](NC(=O)c1cccc([N+](=O)[O-])c1)CCc1cc(O)c(O)c(O)c1-2
SYSTEM NAME: ACHN
GROUP: 0.0
//
COMPOUND: CC(C)(C)c1ccc(C(C)(C)C)c(N2C(=O)C3ON=C(c4ccc([N+](=O)[O-])cc4)C3C2=O)c1 (stereo not given)
SYSTEM NAME: ACHN
GROUP: 0.0
//
COMPOUND: C/C=C(/C)C(=O)OC1CC(C)[C@H]2CC(=O)C(C)=C2CC1C(C)(C)OC(C)=O (stereo not given in full)
SYSTEM NAME: ACHN
GROUP: 0.0
//
COMPOUND: COC(=O)/C=C/c1ccc2c(c1)CC1(Cc3ccccc3C1)C2
SYSTEM NAME: ACHN
GROUP: 0.0
//
COMPOUND: O=C(c1ccccc1)c1c(CC(O)c2ccccc2)n(C(=O)c2ccccc2)c2ccccc12 (stereo not given)
SYSTEM NAME: ACHN
GROUP: 0.0
//
COMPOUND: Oc1cc(-c2ccccn2)nc2cc(F)ccc12
SYSTEM NAME: ACHN
GROUP: 0.0
//
COMPOUND: Clc1ccc(OCc2nnc3sc(-c4ccc(-c5ccc(Cl)cc5Cl)o4)nn23)c(Cl)c1
SYSTEM NAME: ACHN
GROUP: 0.0
//
COMPOUND: CC(=NNC(=S)Nc1ccccc1C)c1cccc(C(C)=NNC(=S)Nc2ccccc2C)n1
SYSTEM NAME: ACHN
GROUP: 0.0
//
COMPOUND: CC(C)(C)OC(=O)CC(NC(=O)OC(C)(C)C)C(=O)NC(C(=O)O)C(O)c1ccccc1 (stereo not given)
SYSTEM NAME: ACHN
GROUP: 0.0
//
COMPOUND: COC(=O)CCC1(CCC(=O)OC)CCCCCCC(CCC(=O)OC)(CCC(=O)OC)C(=O)C1=O
SYSTEM NAME: ACHN
GROUP: 0.0
//
COMPOUND: COc1ccc(CCc2ccc3c(c2)OCO3)cc1
SYSTEM NAME: ACHN
GROUP: 0.0
//
COMPOUND: CC1=C(C(=O)CC(=O)C(=O)Nc2cccc(Cl)c2C)Sc2ccccc2N1
SYSTEM NAME: ACHN
GROUP: 0.0
//
COMPOUND: Cc1ccc(Oc2ccc(C(=O)c3cccc(C(=O)c4ccc(Oc5ccc(C)cc5)cc4)n3)cc2)cc1
SYSTEM NAME: ACHN
GROUP: 0.0
//
COMPOUND: O=C1c2ccccc2-c2nnc(-c3ccccc3)cc21
SYSTEM NAME: ACHN
GROUP: 0.0
//
COMPOUND: OC1(c2ccccc2)CCCCCCCCC(O)(c2ccccc2)CCCCCCCC1 (stereo not given)
SYSTEM NAME: ACHN
GROUP: 0.0
//
COMPOUND: CCN(CC)CCCNc1ncc(C)c2c1c1ccc3c(O)cccc3c1n2C
SYSTEM NAME: ACHN
GROUP: 0.0
//
COMPOUND: Cc1ccc2c(O)cc(-c3sccc3C)nc2n1
SYSTEM NAME: ACHN
GROUP: 1.0
//
COMPOUND: CC(C)[C@H](CCl)NC(=O)c1cccc(C(=O)N[C@H](CCl)C(C)C)n1 (stereo in doubt)
SYSTEM NAME: ACHN
GROUP: 0.0
//
COMPOUND: COS(=O)CCOC(=O)c1ccccc1SSc1ccccc1C(=O)OCCS(=O)OC (stereo not given)
SYSTEM NAME: ACHN
GROUP: 0.0
//
COMPOUND: CCCCOC(=O)CC(CC(=O)OCCCC)(OC(C)=O)C(=O)OCCCC [ACETYLTRIBUTYL CITRATE]
SYSTEM NAME: ACHN
GROUP: 0.0
//
COMPOUND: Sc1ncnc2c1ncn2Cc1ccco1
SYSTEM NAME: ACHN
GROUP: 0.0
//
COMPOUND: C=C(Cl)/C(=C\Br)CCC(Cl)C(C)C.C=C(Cl)/C(=C\Cl)CCC(Cl)C(C)C (stereo not given)
SYSTEM NAME: ACHN
GROUP: 0.0
//
COMPOUND: CCOC(=O)C1(C#N)C(c2ccccc2)CC(O)(c2ccc(Cl)cc2)C(C(=O)c2ccc(Cl)cc2)C1c1ccccc1 (stereo not given)
SYSTEM NAME: ACHN
GROUP: 0.0
//
COMPOUND: Nc1nc(N)nc(CC(=O)O)n1
SYSTEM NAME: ACHN
GROUP: 0.0
//
COMPOUND: O=[N+]([O-])c1ccc(Sc2c3ccccc3nc3ccccc23)cn1
SYSTEM NAME: ACHN
GROUP: 0.0
//
COMPOUND: COc1cc(C/C=C/c2ccccc2)c(OC)cc1O [VIOLASTYRENE]
SYSTEM NAME: ACHN
GROUP: 0.0
//
COMPOUND: CC1(C)C=CC(=O)C(O)C(C)(C)C1=O (stereo not given)
SYSTEM NAME: ACHN
GROUP: 0.0
//
COMPOUND: CC1CNC(c2cccc(-c3nc(-c4cccc(C5=NC(C)CN5)c4)nc(N(C)C)n3)c2)=N1 (stereo not given)
SYSTEM NAME: ACHN
GROUP: 0.0
//
COMPOUND: C/C(=N/NC(=S)Nc1ccc([N+](=O)[O-])cc1)c1cccc(/C(C)=N\NC(=S)Nc2ccc([N+](=O)[O-])cc2)n1
SYSTEM NAME: ACHN
GROUP: 1.0
//
COMPOUND: CC(=O)NNc1nc(C)c(C(/C=C/c2ccc(Cl)cc2)=N\NS(=O)(=O)c2ccc(C)cc2)s1
SYSTEM NAME: ACHN
GROUP: 0.0
//
COMPOUND: C=C(C)C1CCC(C(=O)O)CC1 (stereo not given)
SYSTEM NAME: ACHN
GROUP: 0.0
//
COMPOUND: c1ccc(SC(Sc2ccccc2)c2ccc3c(c2)OCO3)cc1
SYSTEM NAME: ACHN
GROUP: 0.0
//
COMPOUND: O=C(Cc1nc2ccccc2s1)C(=O)Nc1cccc(C(F)(F)F)c1
SYSTEM NAME: ACHN
GROUP: 0.0
//
COMPOUND: O=C1/C(=C\c2cccc(Oc3ccccc3)c2)SC(c2ccccc2)N1c1cc(Cl)ccc1Cl (stereo not given)
SYSTEM NAME: ACHN
GROUP: 0.0
//
COMPOUND: COc1ccc(C(c2ccc(C(C)C)cc(=O)c2O)c2ccc3cccnc3c2O)cc1 (stereo not given)
SYSTEM NAME: ACHN
GROUP: 1.0
//
COMPOUND: O=C(CCc1cccc(O)c1)NCCCNC(=O)CCc1cccc(O)c1
SYSTEM NAME: ACHN
GROUP: 0.0
//
COMPOUND: Cc1ccc(-c2cc(-c3ccc(Cl)cc3)nc(/N=C3\C(=O)N(CN4CCOCC4)c4ccccc43)n2)cc1
SYSTEM NAME: ACHN
GROUP: 0.0
